src = patent US8258311B2

biological target: PTP1B (Homo sapiens, UniProt P18031)
Sequence (P18031 whole entry, species assumed): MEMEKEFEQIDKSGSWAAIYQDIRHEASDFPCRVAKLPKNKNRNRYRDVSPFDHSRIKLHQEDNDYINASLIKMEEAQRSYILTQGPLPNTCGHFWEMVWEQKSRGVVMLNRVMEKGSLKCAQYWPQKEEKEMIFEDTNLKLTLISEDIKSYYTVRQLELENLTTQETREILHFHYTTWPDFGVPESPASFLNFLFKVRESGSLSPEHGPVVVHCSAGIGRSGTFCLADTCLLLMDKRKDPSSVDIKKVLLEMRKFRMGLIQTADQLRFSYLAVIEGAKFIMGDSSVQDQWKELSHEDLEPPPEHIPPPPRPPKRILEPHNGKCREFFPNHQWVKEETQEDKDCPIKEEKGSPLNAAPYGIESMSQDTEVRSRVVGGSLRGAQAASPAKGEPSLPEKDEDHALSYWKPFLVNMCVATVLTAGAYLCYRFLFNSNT
pIC50: −log10 of the molar value.
PROPERTY MEASURED: pIC50

Please review the following examples before continuing.
COMPOUND	MEASUREMENT
CCc1csc([C@H](Cc2ccc(NS(=O)(=O)O)cc2)NC(=O)C(C)(C)C)n1	3.85
COC(=O)N[C@@H](Cc1ccccc1)C(=O)N[C@@H](Cc1ccc(NS(=O)(=O)O)cc1)c1nc(-c2cccs2)cs1	6.00
CCCc1csc([C@H](Cc2ccc(NS(=O)(=O)O)cc2)NC(=O)OC(C)(C)C)n1	4.45
COC(=O)N[C@@H](Cc1ccccc1)C(=O)N[C@@H](Cc1ccc(NS(=O)(=O)O)cc1)c1csc(C2CC2)n1	5.87
CCOC(=O)N[C@@H](Cc1ccccc1)C(=O)N[C@@H](Cc1ccc(NS(=O)(=O)O)cc1)c1nc(CC)cs1	6.17

[I] CCOC(=O)c1csc([C@H](Cc2ccc(NS(=O)(=O)O)cc2)NC(=O)[C@H](Cc2ccccc2)NC(=O)OC)n1
[II] CCCc1csc([C@H](Cc2ccc(NS(=O)(=O)O)cc2)NC(=O)[C@H](Cc2ccccc2)NC(=O)OC)n1
Which entry shows the lesser value of pIC50 here, I or II ? # reply format: chosen label
II
(II: 5.99, I: 7.15)

[1] CC(=O)N[C@@H](Cc1ccccc1)C(=O)N[C@@H](Cc1ccc(NS(=O)(=O)O)cc1)c1nc(-c2ccsc2)cs1
[2] COC(=O)N[C@@H](Cc1ccccc1)C(=O)N[C@@H](Cc1ccc(NS(=O)(=O)O)cc1)c1nc2c(s1)CCC2
Identify the entry with the larger pIC50. Options: 1 and 2 # reply format: chosen label
2

[A] COC(=O)N[C@@H](Cc1ccccc1)C(=O)N[C@@H](Cc1ccc(NS(=O)(=O)O)cc1)c1csc(-c2sccc2Cl)n1
[B] CCOC(=O)Cc1csc([C@H](Cc2ccc(NS(=O)(=O)O)cc2)NC(=O)OC(C)(C)C)n1
[C] CC(C)(C)OC(=O)N[C@@H](Cc1ccc(NS(=O)(=O)O)cc1)c1nc(-c2ccsc2)cs1
[D] COC(=O)N[C@@H](Cc1ccccc1)C(=O)N[C@@H](Cc1ccc(NS(=O)(=O)O)cc1)c1nc(C)cs1
Rank ascending by pIC50. Reply: labels, ordered per the request.
B, C, A, D
